# Species: Rattus norvegicus
# assay: Open TG-GATES - Regimen: Daily Repeat
# Assay type: toxicity, organism-based, Sprague-Dawley
# Parameters: regimen Daily Repeat, gender Male, age 6 weeks
# experimental.context: in vivo, po, 0 mg/kg, […], route gavage, dose level Control, time 28 day
In this section we review reported TERMINAL_BW values for a set of compounds.
measured.quantity: TERMINAL_BW (g)

>>> readout_number("CN(C)CCCN1c2ccccc2CCc2ccccc21")
419.8
>>> readout_number("NNC(=O)c1ccncc1")
374.9
>>> readout_number("COc1ccc2[nH]c([S+]([O-])Cc3ncc(C)c(OC)c3C)nc2c1 (stereo not drawn)")
379.8
>>> readout_number("CCCNC(=O)NS(=O)(=O)c1ccc(Cl)cc1 [CHLORPROPAMIDE]")
390.8
>>> readout_number("CN1C(=O)CN=C(c2ccccc2)c2cc(Cl)ccc21")
416.1
>>> readout_number("CC1=C(/C=C/C(C)=C/C=C/C(C)=C/CO)C(C)(C)CCC1")
374.5
>>> readout_number("CCOC(=O)CCC(=O)O[C@H]1[C@H](O[C@@H]2[C@@H](C)[C@H](O[C@H]3C[C@@](C)(OC)[C@@H](O)[C@H](C)O3)[C@@H](C)C(=O)O[C@H](CC)[C@@](C)(O)[C@H](O)[C@@H](C)C(=O)[C@H](C)C[C@@]2(C)O)O[C@H](C)C[C@@H]1N(C)C [ERYTHROMYCIN ETHYLSUCCINATE]")
372.4
>>> readout_number("O=C(CCCN1CCC(O)(c2ccc(Cl)cc2)CC1)c1ccc(F)cc1")
396.3
>>> readout_number("NC(N)=Nc1nc(CSCCC(N)=NS(N)(=O)=O)cs1")
376
>>> readout_number("COC1=CC(=O)C[C@@H](C)[C@]12Oc1c(Cl)c(OC)cc(OC)c1C2=O")
391
>>> readout_number("CCOc1ccc(NC(=O)CC(C)O)cc1 (stereo not drawn)")
420.9
>>> readout_number("CN(C)CCN(Cc1cccs1)c1ccccn1")
347.3
>>> readout_number("CC(C)OC(=O)C(C)(C)Oc1ccc(C(=O)c2ccc(Cl)cc2)cc1 [FENOFIBRATE]")
390.8

* * *

We begin with a simple list: items and their reported ALT.
# Species on record: Rattus norvegicus
# assay: Open TG-GATES - Regimen: Daily Repeat
# Format: toxicity, organism-based, Sprague-Dawley
# Parameters: regimen Daily Repeat, gender Male, age 6 weeks
# experimental.context: in vivo, po, 300 mg/kg, […], tissue Plasma, route gavage, dose level Middle, time 7 day
measured.quantity: ALT (IU/L)

>>> readout_number("NC(N)=Nc1nc(CSCCC(N)=NS(N)(=O)=O)cs1")
34.2
>>> readout_number("COC1=CC(=O)C[C@@H](C)[C@]12Oc1c(Cl)c(OC)cc(OC)c1C2=O")
35.6
>>> readout_number("CCOC(=O)CCC(=O)O[C@H]1[C@H](O[C@@H]2[C@@H](C)[C@H](O[C@H]3C[C@@](C)(OC)[C@@H](O)[C@H](C)O3)[C@@H](C)C(=O)O[C@H](CC)[C@@](C)(O)[C@H](O)[C@@H](C)C(=O)[C@H](C)C[C@@]2(C)O)O[C@H](C)C[C@@H]1N(C)C [ERYTHROMYCIN ETHYLSUCCINATE]")
42.4
>>> readout_number("CCOc1ccc(NC(=O)CC(C)O)cc1 (centres undefined)")
42.4
